Ref: paper PMC9503212

Record form. Attribute: Ki. Fill in for each entry.
# tgt: matriptase (Homo sapiens)
# Sequence (Q9Y5Y6 whole entry, species assumed): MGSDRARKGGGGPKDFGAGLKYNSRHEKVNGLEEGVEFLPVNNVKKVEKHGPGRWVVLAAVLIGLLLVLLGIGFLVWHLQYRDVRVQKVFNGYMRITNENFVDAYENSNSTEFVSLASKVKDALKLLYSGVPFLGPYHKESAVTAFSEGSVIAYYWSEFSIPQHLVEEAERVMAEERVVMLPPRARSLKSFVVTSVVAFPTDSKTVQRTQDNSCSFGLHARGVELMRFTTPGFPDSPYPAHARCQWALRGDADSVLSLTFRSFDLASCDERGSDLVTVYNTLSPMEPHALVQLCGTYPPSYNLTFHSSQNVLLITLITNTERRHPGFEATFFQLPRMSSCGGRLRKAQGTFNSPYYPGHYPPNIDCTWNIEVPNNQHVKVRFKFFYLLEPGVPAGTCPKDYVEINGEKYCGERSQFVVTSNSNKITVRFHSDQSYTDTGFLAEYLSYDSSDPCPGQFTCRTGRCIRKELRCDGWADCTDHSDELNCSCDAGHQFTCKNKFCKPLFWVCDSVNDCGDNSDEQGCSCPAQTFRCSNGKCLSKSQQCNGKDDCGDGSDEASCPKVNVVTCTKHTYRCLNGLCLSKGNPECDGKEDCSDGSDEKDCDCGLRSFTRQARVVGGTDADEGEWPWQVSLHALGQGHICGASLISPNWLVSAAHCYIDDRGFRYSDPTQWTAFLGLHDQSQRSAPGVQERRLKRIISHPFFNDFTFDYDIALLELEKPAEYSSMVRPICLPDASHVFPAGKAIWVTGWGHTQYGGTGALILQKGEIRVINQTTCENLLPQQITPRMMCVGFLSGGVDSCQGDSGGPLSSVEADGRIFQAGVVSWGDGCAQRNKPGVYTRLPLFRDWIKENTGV
# method_summary: In vitro binding assay (fluorogenic BOC–QAR–AMC substrate), matriptase
# Assay type: biochemical
# condition_info: 0.3 nM enzyme, 150 μM substrate, Ki by Cheng and Prusoff from IC50, three determinations
Write the value in nM as a bare number.

[ask] Requested read-out Ki, target or system matriptase (Homo sapiens), entry CC(=O)N[C@@H](CC(C)C)C(=O)NC(CCCNC(=N)N)C(=O)c1nccs1 (stereo partly drawn) [Ac–Leu–Arg–kt, reference compound]
[reply] 56.5

[ask] Requested read-out Ki, target or system matriptase (Homo sapiens), entry CC(C)C[C@H](NC(=O)CCc1cn(CCOCCOCCF)nn1)C(=O)NC(CCCNC(=N)N)C(=O)c1nccs1 (stereo partly drawn) [Ligand 1A]
[reply] 54.5

[ask] Requested read-out Ki, target or system matriptase (Homo sapiens), entry CC(C)C[C@H](NC(=O)CCc1cn(CCOCCOCCF)nn1)C(=O)NC(CCCNC(=N)N)C(=O)c1nccs1 (stereo partly drawn) [Ligand 1B]
[reply] 20

###

# tgt: Recombinant hepsin (Homo sapiens)
# Construct: purchased R&D Systems
# Sequence (P05981 163-417 limits assumed): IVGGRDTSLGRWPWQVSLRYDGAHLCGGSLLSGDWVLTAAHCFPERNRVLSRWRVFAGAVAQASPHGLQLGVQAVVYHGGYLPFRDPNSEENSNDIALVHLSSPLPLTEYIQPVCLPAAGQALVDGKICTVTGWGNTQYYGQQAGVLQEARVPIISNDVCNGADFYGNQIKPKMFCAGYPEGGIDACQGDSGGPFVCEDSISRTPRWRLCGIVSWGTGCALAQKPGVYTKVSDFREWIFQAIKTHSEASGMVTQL
# Sequence (P05981 1-162 partner limits assumed): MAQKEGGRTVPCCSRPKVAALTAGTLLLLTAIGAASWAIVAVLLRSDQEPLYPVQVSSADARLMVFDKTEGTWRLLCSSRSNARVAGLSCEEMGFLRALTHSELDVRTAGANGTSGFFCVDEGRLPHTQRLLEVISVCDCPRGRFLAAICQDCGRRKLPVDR
# method_summary: In vitro binding assay (fluorogenic BOC–QAR–AMC substrate), hepsin
# Type: biochemical
# condition_info: 0.3 nM enzyme, 150 μM substrate, Ki by Cheng and Prusoff from IC50, three determinations
reported_property: Ki (nM)
Write the value in nM as a bare number.

[ask] Requested read-out Ki, target or system Recombinant hepsin (Homo sapiens), entry CC(C)C[C@H](NC(=O)CCc1cn(CCOCCOCCF)nn1)C(=O)NC(CCCNC(=N)N)C(=O)c1nccs1 (stereo partly drawn) [Ligand 1B]
[reply] 0.5

[ask] Requested read-out Ki, target or system Recombinant hepsin (Homo sapiens), entry CC(C)C[C@H](NC(=O)CCc1cn(CCOCCOCCF)nn1)C(=O)NC(CCCNC(=N)N)C(=O)c1nccs1 (stereo partly drawn) [Ligand 1A]
[reply] 0.9

[ask] Requested read-out Ki, target or system Recombinant hepsin (Homo sapiens), entry CC(=O)N[C@@H](CC(C)C)C(=O)NC(CCCNC(=N)N)C(=O)c1nccs1 (stereo partly drawn) [Ac–Leu–Arg–kt, reference compound]
[reply] 7.8
